Assay: Acute toxicity (LD50) in mice
Details: mouse, in vivo, iv, injection route i.v., hydrochloride, read-out: LD₅₀

| compound | unit spec | LD50 |
| --- | --- | --- |
| CC(=O)Oc1c(C2CC(C)(N(C)C)C(OC(C)=O)C(C)O2)ccc2c1C(=O)c1c(cc(C)c3c(=O)cc(C4(C)OC4C4OC4C)oc13)C2=O (stereo not shown) | mg/kg | 23.5 |
